Target: T1, human LRRC15 extracellular domain with C-terminal His tag (human, UniProt Q8TF66 22-538)
T1 construct: Recombinant, made in HEK293; the entry holds the extracellular domain and the His tag; SPR analyte; also called TPP-1545; hLRRC15 CT-His
T1 sequence: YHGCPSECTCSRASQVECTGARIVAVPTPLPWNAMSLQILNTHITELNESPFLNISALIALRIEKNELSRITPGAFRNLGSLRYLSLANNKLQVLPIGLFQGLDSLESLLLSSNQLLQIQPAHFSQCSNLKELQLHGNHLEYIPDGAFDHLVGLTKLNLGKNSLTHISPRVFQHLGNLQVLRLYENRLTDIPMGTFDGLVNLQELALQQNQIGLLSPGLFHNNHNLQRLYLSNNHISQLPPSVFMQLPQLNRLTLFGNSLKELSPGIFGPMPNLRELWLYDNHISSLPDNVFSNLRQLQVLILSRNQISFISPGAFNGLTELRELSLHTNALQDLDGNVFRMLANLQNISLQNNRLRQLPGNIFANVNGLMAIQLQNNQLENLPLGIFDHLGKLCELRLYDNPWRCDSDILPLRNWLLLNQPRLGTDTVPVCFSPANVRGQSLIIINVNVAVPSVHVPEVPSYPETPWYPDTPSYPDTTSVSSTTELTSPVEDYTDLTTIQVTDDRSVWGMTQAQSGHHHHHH
Test: calculated from SPR kd, 37°C
Experimental: To assess if anti-LRRC-15 antibodies show a difference in binding at different temperatures, binding assays were conducted using surface plasmon resonance (SPR). Binding assays were performed on a Biacore T200 instrument at temperatures of 10° C., 20° C., 25° C. and 37° C. with assay buffer HBS EP+, 1 mg/ml BSA (bovine serum albumine), 300 mM NaCl, 0.05% NaN₃. […]
Property: Complex Half Life; scope: individual binders
Reply numerically in min, unit not repeated.

Query string: Reported Complex Half Life, binder TPP-17078 (antibody, human IgG1, kappa, V domains shown, also called 438H-M308-H05-hIgGkappa) VH: EVQLVQSGAEVKKPGASVKVSCKASGYKFSSYWIEWVKQAPGQGLEWIGEILPGSDTTNYNEKFKDRATFTSDTSINTAYMELSRLRSDDTAVYYCARDRGNYRAWFGYWGQGTLVTVSS VL: DIQMTQSPSSLSASVGDRVTITCRASQSISSYLNWYQQKPGGAPKFLIYYASSLQSGVPSRFSGSGSGTDYTLTISSLQPEDFATYYCQQGFSLPWTFGGGTKVEIKR : ____
Result string: 17.5

Source of measurements: patent US20240108766A1
